Data origin, for the record: patent US8710038B2

# assayTarget: UniProt P54760
# Sequence (P54760 16-987): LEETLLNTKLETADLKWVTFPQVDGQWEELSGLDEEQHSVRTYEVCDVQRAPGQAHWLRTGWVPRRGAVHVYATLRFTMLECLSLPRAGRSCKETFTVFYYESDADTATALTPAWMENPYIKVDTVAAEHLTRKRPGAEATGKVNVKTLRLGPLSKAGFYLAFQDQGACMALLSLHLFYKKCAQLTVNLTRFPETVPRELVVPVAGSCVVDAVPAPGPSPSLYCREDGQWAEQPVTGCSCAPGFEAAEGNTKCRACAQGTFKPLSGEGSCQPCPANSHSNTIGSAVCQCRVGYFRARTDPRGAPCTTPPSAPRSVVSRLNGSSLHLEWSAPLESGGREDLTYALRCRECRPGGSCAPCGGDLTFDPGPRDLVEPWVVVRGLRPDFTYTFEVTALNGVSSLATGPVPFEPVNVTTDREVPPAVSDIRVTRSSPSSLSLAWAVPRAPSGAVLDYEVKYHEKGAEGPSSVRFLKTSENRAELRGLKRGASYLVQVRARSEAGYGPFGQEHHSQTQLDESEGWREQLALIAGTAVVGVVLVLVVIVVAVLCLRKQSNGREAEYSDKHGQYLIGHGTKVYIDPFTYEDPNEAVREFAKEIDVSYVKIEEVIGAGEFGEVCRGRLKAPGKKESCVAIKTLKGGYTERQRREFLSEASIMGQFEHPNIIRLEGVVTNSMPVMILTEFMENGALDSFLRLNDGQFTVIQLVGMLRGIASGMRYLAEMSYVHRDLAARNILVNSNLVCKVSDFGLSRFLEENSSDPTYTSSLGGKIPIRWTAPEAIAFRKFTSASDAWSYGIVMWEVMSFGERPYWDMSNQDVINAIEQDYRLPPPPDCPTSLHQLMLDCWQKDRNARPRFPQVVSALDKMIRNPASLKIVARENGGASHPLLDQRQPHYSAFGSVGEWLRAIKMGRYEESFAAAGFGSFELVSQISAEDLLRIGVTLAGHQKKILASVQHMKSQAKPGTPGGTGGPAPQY
The following compounds are shown together with reported IC50 values.

[
  {
    "compound": "CN1CCN(c2ccc3nc(-c4cc(/C=C/c5ccc(O)cc5)[nH]n4)[nH]c3c2)CC1 [Entry 1]",
    "assayTarget": "UniProt P54760",
    "IC50": "0.5 to 5 µM"
  },
  {
    "compound": "CN1CCN(c2ccc3[nH]c(-c4cc(-c5ccc(NC(=O)Nc6cc(F)cc(F)c6)cc5)[nH]n4)nc3c2)CC1 [Entry 19]",
    "assayTarget": "UniProt P54760",
    "IC50": "> 5 µM"
  },
  {
    "compound": "O=C(Nc1ccc(-c2cc(-c3ccccc3)n[nH]2)cc1)Nc1ccc(Cl)c(C(F)(F)F)c1 [Entry 50]",
    "assayTarget": "UniProt P54760",
    "IC50": "> 5 µM"
  },
  {
    "compound": "CN1CCN(c2ccc3[nH]c(-c4cc(-c5ccc(NC(=O)Nc6ccc(Cl)c(C(F)(F)F)c6)cc5)[nH]n4)nc3c2)CC1 [Entry 14]",
    "assayTarget": "UniProt P54760",
    "IC50": "> 5 µM"
  },
  {
    "compound": "Oc1ccc(/C=C/c2cc(-c3nc4ccccc4[nH]3)n[nH]2)cc1 [Entry 47]",
    "assayTarget": "UniProt P54760",
    "IC50": "0.5 to 5 µM"
  },
  {
    "compound": "CN1CCN(c2ccc(-c3cc(/C=C/c4ccc(O)cc4)[nH]n3)cc2)CC1 [Entry 51]",
    "assayTarget": "UniProt P54760",
    "IC50": "> 5 µM"
  }
]

Exercise: Which IC50 reading was recorded for the compound Oc1ccc(/C=C/c2cc(-c3ccc(F)cc3)[nH]n2)cc1 [Entry 60] ?
Solution: > 5 µM

Exercise: Which IC50 reading was recorded for the compound CN1CCN(c2ccc3[nH]c(-c4cc(-c5ccc(NC(=O)Nc6ccc(F)c(F)c6)cc5)[nH]n4)nc3c2)CC1 [Entry 25] ?
Solution: > 5 µM

---

The following molecules are shown together with reported IC50 values.
# assayTarget: c-Kit (Homo sapiens, UniProt P10721)
# Sequence (P10721 26-976): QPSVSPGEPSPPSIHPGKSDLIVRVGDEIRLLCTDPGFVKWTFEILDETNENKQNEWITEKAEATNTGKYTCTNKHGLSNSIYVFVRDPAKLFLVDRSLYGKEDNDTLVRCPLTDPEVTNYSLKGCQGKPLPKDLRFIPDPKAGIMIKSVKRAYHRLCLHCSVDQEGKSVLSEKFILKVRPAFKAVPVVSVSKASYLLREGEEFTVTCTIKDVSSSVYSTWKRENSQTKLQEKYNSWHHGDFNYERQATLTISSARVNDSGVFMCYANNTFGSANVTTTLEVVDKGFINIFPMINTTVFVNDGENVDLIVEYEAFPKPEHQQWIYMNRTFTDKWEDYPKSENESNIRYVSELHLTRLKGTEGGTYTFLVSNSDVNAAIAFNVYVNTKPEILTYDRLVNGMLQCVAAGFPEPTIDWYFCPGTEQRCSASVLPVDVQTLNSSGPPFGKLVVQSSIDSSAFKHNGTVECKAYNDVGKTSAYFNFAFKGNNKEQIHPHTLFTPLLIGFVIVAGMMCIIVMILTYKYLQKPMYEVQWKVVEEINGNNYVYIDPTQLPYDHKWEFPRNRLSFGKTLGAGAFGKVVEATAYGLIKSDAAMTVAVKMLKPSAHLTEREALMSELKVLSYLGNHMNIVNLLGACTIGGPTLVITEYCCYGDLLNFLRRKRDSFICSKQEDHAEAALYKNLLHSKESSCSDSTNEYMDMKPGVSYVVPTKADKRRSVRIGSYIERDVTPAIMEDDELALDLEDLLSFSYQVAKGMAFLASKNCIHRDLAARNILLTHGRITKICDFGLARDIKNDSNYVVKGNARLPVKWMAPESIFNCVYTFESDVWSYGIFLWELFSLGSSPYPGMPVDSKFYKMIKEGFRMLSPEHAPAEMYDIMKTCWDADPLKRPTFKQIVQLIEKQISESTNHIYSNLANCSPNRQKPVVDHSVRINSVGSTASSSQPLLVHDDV
# assay: c-Kit biochemical assay (AlphaScreen)

[
  {
    "smilesRecord": "COc1ccc(NC(=O)Nc2ccc(-c3cc(-c4ccc(N5CCN(C)CC5)cc4)[nH]n3)cc2)c(OC)c1",
    "IC50": "50 to 500 nM"
  }
]

Exercise: Which IC50 reading was recorded for the molecule "CN1CCN(c2cccc(-c3cc(/C=C/c4ccc(O)cc4)[nH]n3)c2)CC1" ?
Solution: 50 to 500 nM

Exercise: Which IC50 reading was recorded for the molecule "CN1CCN(c2ccc3nc(-c4cc(/C=C/c5ccc(O)cc5)[nH]n4)[nH]c3c2)CC1" ?
Solution: < 50 nM

Exercise: Which IC50 reading was recorded for the molecule "CCc1cccc(NC(=O)Nc2ccc(-c3cc(-c4nc5cc(N6CCN(CC)CC6)ccc5[nH]4)n[nH]3)cc2)c1" ?
Solution: < 50 nM

---

# assayTarget: c-Kit (Homo sapiens, UniProt P10721)
# assay: c-Kit biochemical assay (AlphaScreen)
# Description: AlphaScreen technology is a proximity assay which utilizes the increase in fluorescent signal occurring when donor and acceptor beads are close in proximity. […] Upon phosphorylation, the peptide substrate can bind to both donor and acceptor beads giving rise to an increase in fluorescence. […] After 2-16 hr incubation of the beads, plates are read in a Perkin Elmer AlphaQuest reader. […] c-Kit biochemical activity was assessed using AlphaScreen™ (Perkin Elmer) technology, described above. […]
observable: IC50

Exercise: Which IC50 reading was recorded for the compound "Oc1ccc(/C=C/c2cc(-c3ccc(Cl)cc3)n[nH]2)cc1" ?
Solution: 500 to 5000 nM

Exercise: Which IC50 reading was recorded for the compound "CCN1CCN(c2ccc3[nH]c(-c4cc(-c5ccc(NC(=O)NC(C)(C)C)cc5)[nH]n4)nc3c2)CC1" ?
Solution: 500 to 5000 nM

Exercise: Which IC50 reading was recorded for the compound "Oc1ccc(/C=C/c2cc(-c3ccccc3)n[nH]2)cc1" ?
Solution: 50 to 500 nM

Exercise: Which IC50 reading was recorded for the compound "COc1ccccc1-c1cc(/C=C/c2ccc(O)cc2)n[nH]1" ?
Solution: 500 to 5000 nM

---

# assayTarget: c-Kit (Homo sapiens, UniProt P10721)
# assay: c-Kit biochemical assay (AlphaScreen)
pIC50: −log10 of the molar value.
The following compounds are shown together with reported pIC50 values.

// solved cases for pIC50 follow
[
  {
    "smilesRecord": "Oc1ccc(/C=C/c2cc(-c3ccc4ccccc4c3)[nH]n2)cc1",
    "pIC50": "6.30 to 7.30"
  },
  {
    "smilesRecord": "CN1CCN(c2ccc3[nH]c(-c4cc(-c5ccc(NC(=O)Nc6ccccc6)cc5)[nH]n4)nc3c2)CC1",
    "pIC50": "6.30 to 7.30"
  },
  {
    "smilesRecord": "CN1CCN(c2ccc3[nH]c(-c4cc(-c5ccc(NC(=O)Nc6ccc(OC(F)(F)F)cc6)cc5)[nH]n4)nc3c2)CC1",
    "pIC50": "> 7.30"
  },
  {
    "smilesRecord": "COc1cc(/C=C/c2cc(/C=C/c3ccc(F)cc3F)n[nH]2)ccc1O",
    "pIC50": "6.30 to 7.30"
  }
]

Moving on to another compound below.
Exercise: Which pIC50 reading was recorded for the compound "O=C(Nc1ccccc1)Nc1ccc(-c2cc(-c3nc4ccccc4[nH]3)n[nH]2)cc1" ?
Solution: > 7.30

---

# assayTarget: flt-3 (Homo sapiens, UniProt P36888)
# Construct: baculovirus expressed human Flt-3 kinase domain R571-S993
# Sequence (P36888 571-993): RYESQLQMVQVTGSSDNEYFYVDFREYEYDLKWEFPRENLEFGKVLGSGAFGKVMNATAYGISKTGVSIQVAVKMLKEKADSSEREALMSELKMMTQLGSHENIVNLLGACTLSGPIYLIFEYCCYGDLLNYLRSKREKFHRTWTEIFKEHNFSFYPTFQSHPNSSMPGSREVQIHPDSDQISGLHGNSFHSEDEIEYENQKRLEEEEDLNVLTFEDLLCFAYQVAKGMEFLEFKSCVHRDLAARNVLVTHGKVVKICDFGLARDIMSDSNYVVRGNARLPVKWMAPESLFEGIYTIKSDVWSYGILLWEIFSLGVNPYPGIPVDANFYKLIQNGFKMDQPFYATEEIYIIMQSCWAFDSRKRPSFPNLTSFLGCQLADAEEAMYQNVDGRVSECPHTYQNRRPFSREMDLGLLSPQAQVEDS
# assay: flt-3 Luciferase-Coupled Chemiluminescent Kinase assay (LCCA)
# Type: biochemical
The following molecules are shown together with reported IC50 values.

// solved cases for IC50 follow
[
  {
    "smilesRecord": "CN1CCN(c2ccc(-c3cc(-c4ccc(NC(=O)Nc5ccc(F)cc5F)cc4)[nH]n3)cc2)CC1",
    "observable": "IC50",
    "result": "< 50 nM"
  },
  {
    "smilesRecord": "CN1CCN(c2ccc3[nH]c(-c4cc(-c5ccc(NC(=O)Nc6cccc(Cl)c6)cc5)[nH]n4)nc3c2)CC1",
    "observable": "IC50",
    "result": "< 50 nM"
  }
]

Moving on to another molecule below.
Exercise: Which IC50 reading was recorded for the molecule "CN1CCN(c2ccc3[nH]c(-c4cc(-c5ccc(NC(=O)Nc6ccc(F)c(F)c6)cc5)[nH]n4)nc3c2)CC1" ?
Solution: < 50 nM

---

# assayTarget: flt-3 (Homo sapiens)
pIC50: −log10 of the molar value.
observable: pIC50

[
  {
    "molecule": "CCc1cccc(NC(=O)Nc2ccc(-c3cc(-c4nc5cc(N6CCN(CC)CC6)ccc5[nH]4)n[nH]3)cc2)c1 [Entry 3]",
    "assayTarget": "flt-3 (Homo sapiens)",
    "pIC50": "> 7.30"
  },
  {
    "molecule": "c1ccc(-c2cc(-c3nc4ccccc4[nH]3)n[nH]2)cc1 [Entry 75]",
    "assayTarget": "flt-3 (Homo sapiens)",
    "pIC50": "5.30 to 6.30"
  }
]

Exercise: Given the entry Oc1ccc(/C=C/c2cc(-c3ccc(Cl)c(Cl)c3)n[nH]2)cc1 [Entry 72] , what pIC50 was observed with flt-3 (Homo sapiens)?
Solution: 5.30 to 6.30

Exercise: Given the entry CN1CCN(c2ccc3[nH]c(-c4cc(-c5ccc(NC(=O)Nc6ccc(Oc7ccccc7)cc6)cc5)[nH]n4)nc3c2)CC1 [Entry 9] , what pIC50 was observed with flt-3 (Homo sapiens)?
Solution: > 7.30

Exercise: Given the entry Cc1ccc(F)cc1NC(=O)Nc1ccc(-c2cc(-c3ccc(N4CCN(C)CC4)cc3)[nH]n2)cc1 [Entry 53] , what pIC50 was observed with flt-3 (Homo sapiens)?
Solution: 6.30 to 7.30

Exercise: Given the entry Oc1ccc2cc(-c3cc(/C=C/c4ccccc4)[nH]n3)oc2c1 [Entry 73] , what pIC50 was observed with flt-3 (Homo sapiens)?
Solution: > 7.30

Exercise: Given the entry Oc1ccc(/C=C/c2cc(-c3ccc(F)cc3)[nH]n2)cc1 [Entry 60] , what pIC50 was observed with flt-3 (Homo sapiens)?
Solution: > 7.30

Exercise: Given the entry Oc1ccc(/C=C/c2cc(-c3cc4cc(Cl)ccc4o3)n[nH]2)cc1 [Entry 63] , what pIC50 was observed with flt-3 (Homo sapiens)?
Solution: 6.30 to 7.30
